Test system: MGC-803 human gastric cancer cell line
methodNotes: MTT cytotoxicity assay, MGC-803
Assay type: cell-based
experimentalSetup: Homo sapiens, MGC-803, 48 h, mean ± SD from three independent experiments
Entries and their measured pIC50 follow.
By convention, pIC50 is the negative base-10 log of a molar concentration.

INSERT INTO assay_data (compound, studytarget, valuetype, assayresult) VALUES
  ('COc1ccccc1N1CC(COC(=O)[C@]2(C)CCC[C@]3(C)c4ccc(C(C)C)cc4CCC23)OC1=O (some centres unmarked)', 'MGC-803 human gastric cancer cell line', 'pIC50', 4.88),
  ('Cc1ccccc1NCC(O)COC(=O)[C@]1(C)CCC[C@]2(C)c3ccc(C(C)C)cc3CCC12 (some centres unmarked)', 'MGC-803 human gastric cancer cell line', 'pIC50', 4.65),
  ('Cc1cccc(NCC(O)COC(=O)[C@]2(C)CCC[C@]3(C)c4ccc(C(C)C)cc4CCC23)c1 (some centres unmarked)', 'MGC-803 human gastric cancer cell line', 'pIC50', 4.91),
  ('Cc1cccc(N2CC(COC(=O)[C@]3(C)CCC[C@]4(C)c5ccc(C(C)C)cc5CCC34)OC2=O)c1 (some centres unmarked)', 'MGC-803 human gastric cancer cell line', 'pIC50', 4.98),
  ('COc1ccccc1NCC(O)COC(=O)[C@]1(C)CCC[C@]2(C)c3ccc(C(C)C)cc3CCC12 (some centres unmarked)', 'MGC-803 human gastric cancer cell line', 'pIC50', 4.55),
  ('COc1cccc(N2CC(COC(=O)[C@]3(C)CCC[C@]4(C)c5ccc(C(C)C)cc5CCC34)OC2=O)c1 (some centres unmarked)', 'MGC-803 human gastric cancer cell line', 'pIC50', 4.71),
  ('C#Cc1cccc(N2CC(COC(=O)[C@]3(C)CCC[C@]4(C)c5ccc(C(C)C)cc5CCC34)OC2=O)c1 (some centres unmarked)', 'MGC-803 human gastric cancer cell line', 'pIC50', 4.74),
  ('CC(C)c1ccc2c(c1)CCC1[C@](C)(C(=O)OCC3CN(c4cccc(F)c4)C(=O)O3)CCC[C@]21C (some centres unmarked)', 'MGC-803 human gastric cancer cell line', 'pIC50', 4.94),
  ('Cc1ccccc1N1CC(COC(=O)[C@]2(C)CCC[C@]3(C)c4ccc(C(C)C)cc4CCC23)OC1=O (some centres unmarked)', 'MGC-803 human gastric cancer cell line', 'pIC50', 4.60),
  ('CC(C)c1ccc2c(c1)CCC1[C@](C)(C(=O)OCC3CN(c4cccc(Cl)c4)C(=O)O3)CCC[C@]21C (some centres unmarked)', 'MGC-803 human gastric cancer cell line', 'pIC50', 5.13);

Return reported pIC50; argument: CC(C)c1ccc2c(c1)CCC1[C@](C)(C(=O)OCC3CN(c4ccc(Cl)cc4)C(=O)O3)CCC[C@]21C (some centres unmarked)
5.24

###

Tested on: MGC-803 human gastric cancer cell line
methodNotes: MTT cytotoxicity assay, MGC-803
Assay type: cell-based
experimentalSetup: Homo sapiens, MGC-803, 48 h, mean ± SD from three independent experiments
valueType: IC50 (µM)
Give a bare numeral; the unit µM is implied.

Some entries whose results are on file:
INSERT INTO assay_data (compound, valuetype, assayresult) VALUES
  ('CC(C)c1ccc2c(c1)CCC1[C@](C)(C(=O)OCC3CN(c4ccc(Br)cc4)C(=O)O3)CCC[C@]21C (stereo partly shown) [Compound 4n]', 'IC50', 5.34),
  ('CC(C)c1ccc2c(c1)CCC1[C@](C)(C(=O)OCC(O)CNc3cccc(Cl)c3)CCC[C@]21C (stereo partly shown) [Compound 3k]', 'IC50', 13.1),
  ('CC(C)c1ccc2c(c1)CCC1[C@](C)(C(=O)OCC(O)CNc3cccc(Br)c3)CCC[C@]21C (stereo partly shown) [Compound 3m]', 'IC50', 16.5);

Return reported IC50; argument: COc1ccc(NCC(O)COC(=O)[C@]2(C)CCC[C@]3(C)c4ccc(C(C)C)cc4CCC23)cc1 (stereo partly shown) [Compound 3g]
51.7

Please do the same for CC(C)c1ccc2c(c1)CCC1[C@](C)(C(=O)OCC(O)CNc3ccc(Br)cc3)CCC[C@]21C (stereo partly shown) [Compound 3n] as well.
9.91

Please do the same for COc1ccc(N2CC(COC(=O)[C@]3(C)CCC[C@]4(C)c5ccc(C(C)C)cc5CCC34)OC2=O)cc1 (stereo partly shown) [Compound 4g] as well.
6.1
